The values you see were collected from patent US12110293B2.

- test_system: glucocorticoid receptor (Homo sapiens, UniProt P04150)
- Construct: expressed in transfected cells
- Sequence (P04150 524-758 limits assumed): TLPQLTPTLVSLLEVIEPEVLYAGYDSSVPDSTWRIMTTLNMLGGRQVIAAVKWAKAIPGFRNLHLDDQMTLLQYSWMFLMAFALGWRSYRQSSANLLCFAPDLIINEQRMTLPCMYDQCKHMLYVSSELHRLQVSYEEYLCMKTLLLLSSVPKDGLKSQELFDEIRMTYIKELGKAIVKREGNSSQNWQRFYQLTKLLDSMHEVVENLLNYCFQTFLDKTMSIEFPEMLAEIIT
- experiment_summary: Agonistic mode of action on the glucocorticoid receptor (CHO-Gal4/GR luciferase reporter cell line)
- Type: cell-based
- experimental_context: range class observed in the agonistic assay or the antagonistic assay (CHO-Gal4/GR reporter cells); table does not say which mode applies per example
reported_property: IC50 or EC50 (agonist or antagonist mode not specified)

Some entries whose results are on file:
Cc1nnc2n1-c1c(cc(F)c(-c3cc(C#N)cc4[nH]ccc34)c1C(F)(F)F)NC2(C)C	100 to 1000 nM
Cc1nnc2n1-c1c(cc(F)c(-c3cccc4c3ccn4CCNC(=O)C(C)(F)F)c1F)NC2(C)C	1000 to 15000 nM
COc1cc2c(c(C(F)(F)F)c1-c1cc(F)cc3c(C)c[nH]c13)-n1c(C)nnc1C(C)(C)N2 [Example 459]	< 100 nM
CCn1ncc2c(-c3c(F)cc4c(c3F)-n3c(C)nnc3C(C)(C)N4)cccc21	100 to 1000 nM
Cc1nnc2n1-c1c(cc(F)c(-c3cc(F)cc4c3cnn4S(C)(=O)=O)c1F)NC2(C)C	100 to 1000 nM
Cc1nnc2n1-c1c(cc(OC(F)F)c(-c3cccc4c3ccn4S(C)(=O)=O)c1F)NC2(C)C	1000 to 15000 nM
Cc1nnc2n1-c1c(cc(F)c(-c3cccc4[nH]ncc34)c1F)NC2(C)C	100 to 1000 nM
Cc1nnc2n1-c1c(cc(F)c(-c3cccc4c3ccn4S(=O)(=O)C(C)C)c1F)NC2(C)C	1000 to 15000 nM

Q: May I ask what IC50 or EC50 (agonist or antagonist mode not specified) has been recorded for "Cc1nnc2n1-c1c(cc(F)c(-c3cccc4c3cnn4S(=O)(=O)C3CC3)c1F)NC2(C)C" ?
Result: 1000 to 15000 nM

Q: Queued: "COc1c(-c2cc(F)cc3c(C4CC4)c[nH]c23)c(F)cc2c1-n1c(C)nnc1C(C)(C)N2"
Result: < 100 nM

Q: Next entry: "Cc1nnc2n1-c1c(cc(F)c(-c3cc(F)cc4[nH]ccc34)c1C(F)F)NC2(C)C"
Result: < 100 nM

Q: Let us now turn to "Cc1nnc2n1-c1c(ccc(-c3cccc4c3ccn4S(C)(=O)=O)c1C(F)F)NC2(C)C"
Result: 100 to 1000 nM
